- target: natriuretic peptide receptor on C3H10T1/2 cells
- assayProcedure: cell-based or functional assay
Where no end group is shown, it is not given here.
reportedProperty: % relative binding (cGMP, Biotrak EIA, peptide at 10^-6 M) (%)

CFGLKLDRIGSQC [CNP variant SEQ ID NO:18] = 11.8
CHFGLKLDRIGSC [CNP variant SEQ ID NO:20] = 11.9
CFGLKLDRIGSMSC [CNP variant SEQ ID NO:14] = 29.9

(P) CFGLKLDRIGAMC (ends and bridges not checked; cysteine pairing not given here) [CNP variant SEQ ID NO:17]
(Q) CFGLKLDAIGSMSGLGC [CNP variant SEQ ID NO:8]
(R) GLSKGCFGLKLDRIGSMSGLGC [CNP 1-22 (native human CNP, 22-mer)]
(S) CFGLKLDRAGSMSGLGC [CNP variant SEQ ID NO:9]
(Q) Endpoint returns the given binders ordered by ascending % relative binding (cGMP, Biotrak EIA, peptide at 10^-6 M). To answer, arrange all of the labels according to the requested order.
(A) P, S, Q, R
(P: 3.4%, S: 11.5%, Q: 18.4%, R: 100%)
